# protocolDetails: In vitro inhibitory activity in the fMLP-stimulated phospholipase (PLD) assay
endpointLabel: IC50

Below, each entry is followed by its recorded IC50 result.
Documented IC50 of Oc1cccc2c1[C@@H](O)[C@H]1O[C@H]1C21Oc2cccc3cccc(c23)O1 : 24 µM

// field: IC50; key: Oc1c(Cl)ccc2c1[C@@H](O)[C@H]1O[C@H]1C21Oc2cccc3cccc(c23)O1 ; value = 19 µM

---
The reported IC50 of the molecule CC(=O)Oc1cccc2c1[C@@H](OC(C)=O)[C@H]1O[C@H]1C21Oc2cccc3cccc(c23)O1 was 17 µM

CC(=O)Oc1c(Cl)ccc2c1[C@@H](OC(C)=O)[C@H]1O[C@H]1C21Oc2cccc3cccc(c23)O1 has a reported IC50 of > 50 µM
